molecular target: human 4-1BB on CHO-K1 cells (human, UniProt Q07011 24-255); experiment: FACS; FIG. 11K
Sequence (Q07011 24-255): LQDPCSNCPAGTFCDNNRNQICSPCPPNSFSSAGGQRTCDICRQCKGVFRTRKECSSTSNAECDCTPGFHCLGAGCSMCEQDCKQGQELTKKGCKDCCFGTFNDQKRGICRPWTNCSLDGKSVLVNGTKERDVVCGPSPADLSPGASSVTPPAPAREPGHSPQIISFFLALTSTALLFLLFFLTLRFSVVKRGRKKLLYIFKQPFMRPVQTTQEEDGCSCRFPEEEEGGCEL
In this section we review reported EC50 values for a set of binders.
endpoint_label: EC50

[
  {
    "binder": "PR007294 (antibody, V domains shown) VH: EVQLVESGGGLVKPGGSLRLSCVASGFTFSDYYMSWFRQAPGKGLEWVSYISGSGTTIDYADSVKGRFTISRDNAKNSLYLQMNSLRAEDTAVYYCAREREPVAGTLDFDNWGQGTLVTVSS",
    "endpoint_label": "EC50",
    "endpoint_value": "1.14 nM"
  },
  {
    "binder": "PR007293 (antibody, V domains shown) VH: EVQLVESGGGLVKPGGSLRLSCAASGFTFSDYYMSWFRQAPGKGLEWVSYINSSGSTIYYEYSVKGRFTISRDNAKNSLYLQMNSLRAEDTAVYYCAREREEVAGTLDFDYWGQGTLVTVSS",
    "endpoint_label": "EC50",
    "endpoint_value": "2.25 nM"
  },
  {
    "binder": "PR007292 (antibody, V domains shown) VH: EVQLVESGGGLVKPGGSLRLSCAASGFTFSDYYMSWIRQAPGKGLEWVSYISSSGSTIDYADSVKGRFTISRDNAKNSLYLQMNSLRAEDTAVYYCAREREEVAGTLDYDNWGQGTLVTVSS",
    "endpoint_label": "EC50",
    "endpoint_value": "1.81 nM"
  },
  {
    "binder": "Urelumab (antibody, V domains shown) VH: QVQLQQWGAGLLKPSETLSLTCAVYGGSFSGYYWSWIRQSPEKGLEWIGEINHGGYVTYNPSLESRVTISVDTSKNQFSLKLSSVTAADTAVYYCARDYGPGNYDWYFDLWGRGTLVTVSS VL: EIVLTQSPATLSLSPGERATLSCRASQSVSSYLAWYQQKPGQAPRLLIYDASNRATGIPARFSGSGSGTDFTLTISSLEPEDFAVYYCQQRSNWPPALTFGGGTKVEIKR",
    "endpoint_label": "EC50",
    "endpoint_value": "0.583 nM"
  }
]
